Give measured CC50 for each item. Keep answers brief.
# System: Huh-7
# experimentalDetails: NOVARTIS: Cytotoxicity against human hepatocellular carcinoma cell line (Huh7)
# Format: toxicity, cell-based
# condition: huh-7, read-out: CC50

>  <compound>
CCN1/C(=C/c2ccc3ccccc3[n+]2CC)Sc2cc(NC(C)=O)ccc21

>  <recordedValue>
> 10 µM

$$$$
>  <compound>
CCN1/C(=C/c2sc3ccccc3[n+]2CC)Sc2ccccc21

>  <recordedValue>
11.1 µM

$$$$
>  <compound>
Cc1cc(C)cc(-n2c(C)cc(/C=C3\SC(=Nc4ccc(Cl)cc4)NC3=O)c2C)c1

>  <recordedValue>
> 100 µM

$$$$

Each of the following entries comes with a recorded value; kindly state CC50 for each.
1. CC[n+]1c(/C=C/N2CCCc3ccccc32)ccc2ccccc21
2. C=CCN1C(=O)/C(=C2/Sc3ccc(OC)cc3N2C)SC1=Nc1ccccc1-c1ccccc1

Result:
> 9.97 µM
> 100 µM

----------
# experimentalDetails: NOVARTIS: Cytotoxicity against human hepatocellular carcinoma cell line (Huh7)
# Format: toxicity, cell-based, Huh-7
# condition: Huh7 cells (hepatocellular carcinoma cell line)
Provide the recorded CC50 for the entries that follow.

Solved entries:
>  <molecule>
CC[n+]1c(/C=C/c2ccc(Cl)cc2)ccc2ccccc21

>  <CC50>
> 10 µM

$$$$
>  <molecule>
CCOc1cc(C2C(C(=O)OC)=CNC=C2C(=O)OC)cc(Br)c1OCC

>  <CC50>
> 100 µM

$$$$
>  <molecule>
CC1=C(C(=O)OCCOc2ccccc2)C(c2cccc([N+](=O)[O-])c2)C2=C(CCCC2=O)N1 (stereo unspecified)

>  <CC50>
> 10 µM

$$$$

Batch request: CC50 for each of the following molecules.
1. Cc1c[n+](Cc2ccccc2)ccc1/C=C/c1ccccc1
2. Cc1ccc(NC(=O)N(CCN(C)C)Cc2cc3cc4c(cc3[nH]c2=O)OCCO4)cc1
3. O=C(COc1ccccc1)Nc1nccs1

Result:
1: > 10 µM; 2: > 100 µM; 3: > 10 µM

----------
# experimentalDetails: NOVARTIS: Cytotoxicity against human hepatocellular carcinoma cell line (Huh7)
# Type: toxicity, cell-based, Huh-7
# condition: Huh7 cells (hepatocellular carcinoma cell line)
readoutLabel: CC50

>  <compound>
CCCCCn1c(SCc2ccc(C)cc2)nc2cc(C(=O)NCc3ccco3)ccc2c1=O

>  <recordedValue>
> 100 µM

$$$$
>  <compound>
CCCNc1nc(OC(C(F)(F)F)C(F)(F)F)nc(OC(C(F)(F)F)C(F)(F)F)n1

>  <recordedValue>
> 10 µM

$$$$
>  <compound>
CCOC(=O)C1=C(C)NC2=C(C(=O)CC(c3ccc(Cl)cc3)C2)C1c1ccc(F)cc1 (stereo unspecified)

>  <recordedValue>
> 100 µM

$$$$
>  <compound>
CCOC(=O)c1cnc2c(OC)cccc2c1Nc1ccc(C(C)=O)cc1

>  <recordedValue>
> 100 µM

$$$$
>  <compound>
NS(=O)(=O)c1ccc(N/C=C/C(=O)c2ccc(Cl)s2)cc1

>  <recordedValue>
> 8.69 µM

$$$$

Go through the list and state CC50 for each entry.
1. Nc1nc(Nc2cccc(Cl)c2)n[nH]1
2. CCC(C)NC(=O)CN(c1cc(OC)ccc1OC)S(C)(=O)=O (stereo unspecified)
3. CCCC(=O)N1CCN(c2nc(Cc3ccccc3)c3c(c2C#N)CC(C)(C)OC3)CC1
4. CN(C)CCNC(=O)c1cc2c(-c3ccc(Cl)cc3)nn(C)c2s1
5. O=[N+]([O-])c1cccc2c(S(=O)(=O)NCCCN(CCO)CCO)cccc12
6. Fc1ccc(Nc2nc(OC(C(F)(F)F)C(F)(F)F)nc(OC(C(F)(F)F)C(F)(F)F)n2)cc1
7. CC[n+]1c(SC)ccc2cc(OC)ccc21
8. N/C(=N\C(=O)c1nc(Cl)c(N)nc1N)NCc1ccc(Cl)c(Cl)c1 [3',4' DICHLOROBENZAMIL]

Result:
1: > 100 µM; 2: > 10 µM; 3: > 90.9 µM; 4: 64.6 µM; 5: > 10 µM; 6: > 10 µM; 7: > 100 µM; 8: 4.59 µM

Give CC50 for all compounds that follow.
1. O=C(Nc1cc(Cl)cc(Cl)c1)C1C2C=CC3(O2)C1C(=O)N(CCC1=CCCCC1)C3C(=O)NC1CCCCC1 (stereo unspecified)
2. CCOC(=O)c1cc(-c2ccc(OC)cc2)n(CCC(=O)Nc2cccc(C(C)=O)c2)c1C
3. Clc1ccc2c(c1)CN(C1CCCCC1)CO2
4. Clc1ccc(-c2c[n+](Cc3ccccc3Cl)c3n2CCC3)cc1
5. O=C(N1CCN(c2ccc(C(F)(F)F)cc2[N+](=O)[O-])CC1)C(Cl)(Cl)Cl
6. CCN(CC)c1ccc(C=NNC(=O)c2ccc(Nc3nc(-c4ccccc4)cs3)cc2)c(O)c1
7. CC(=O)N(C1=C(N2CCCCC2)C(=O)c2ccccc2C1=O)c1ccc(F)cc1

Result:
1. > 100 µM
2. > 100 µM
3. 71 µM
4. > 87 µM
5. > 95 µM
6. 20.1 µM
7. 33.3 µM

Ask: Fill in CC50 for record CNC1=C(N(C(C)=O)c2ccc(Br)cc2)C(=O)c2ccccc2C1=O
Result: > 10 µM

----------
# System: Plasmodium falciparum
# experimentalDetails: NOVARTIS: Inhibition of Plasmodium falciparum W2 (drug-resistant) proliferation in erythrocyte-based infection assay
# Assay type: functional, organism-based
# condition: Plasmodium falciparum, W2; read-out: EC50
readoutLabel: pEC50
Give bare numbers, as −log10 of the molar value.

Before answering, review these 3 worked examples.
>  <molecule>
CC(C)(C)CC(C)(C)Nc1c(-c2ccccc2OC(=O)/C=C/c2ccccc2)nc2ccccn12

>  <recordedValue>
7.47

$$$$
>  <molecule>
COc1ccc(C2C(C(=O)c3ccccc3)=C(O)C(=O)N2c2cccc(Cl)c2)c(OC)c1 (stereo unspecified)

>  <recordedValue>
5.59

$$$$
>  <molecule>
NC(=O)c1ccc2c(c1)N=C(/C=C/c1ccccc1)N(C1CC1)C2

>  <recordedValue>
5.25

$$$$

Report pEC50 for each item below.
1. COC(=O)C1=C(C)N/C(=C\c2cc(C)n(-c3cc(C)ccc3C)c2C)C1=O
2. CCN1CCCC1CNc1ncnc2c1[nH]c1ccc(C)cc12 (stereo unspecified)
3. Cc1cccc(Nc2ccccc2C(=O)OCC(=O)N2CC(=O)Nc3ccccc32)c1C
4. O=C(Nc1cc(C(=O)N2CCC(Cc3ccccc3)CC2)ccc1N1CC2CC(C1)c1cccc(=O)n1C2)c1cccs1 (stereo unspecified)
5. O=C1/C(=C/c2ccccc2)Oc2c1ccc(O)c2CN1CCCCC1

Result:
1. 7.82
2. 6.86
3. 5.42
4. 7.19
5. 5.90

Parameter requested: pEC50. Apply to each item below.
1. CCC(C)OC(=O)C1=C(C)NC2=C(C(=O)CC(c3ccc(Cl)cc3)C2)C1c1ccccc1F (stereo unspecified)
2. Cc1ccc2ncnc(Nc3cccc(C(F)(F)F)c3)c2c1
3. Cc1nc(NN=Cc2c(O)ccc3ccccc23)cc(N2CCCCC2)n1

Result:
1. 7.23
2. 5.66
3. 6.47

For the 2 molecules below, give their pEC50 values.
1. c1cncc(-c2cc(NCCCn3ccnc3)nc(-c3ccncc3)n2)c1
2. Cc1nc(-c2ccccc2)nc(C(=O)N2CCN(C(=O)/C=C/c3ccccc3)C(C)C2)c1C(=O)OC(C)C (stereo unspecified)

Result:
6.02
6.21

Give one value of pEC50 per listed molecule.
1. CCC(C)(C)c1ccc(OCCCC[n+]2ccc(C)cc2)c(C(C)(C)CC)c1
2. CCCN(CCC)C(=O)Cn1ccc(=N)c2ccccc21

Result:
[6.71, 6.17]

----------
# Tested on: Plasmodium falciparum
# experimentalDetails: NOVARTIS: Inhibition of Plasmodium falciparum 3D7 (drug-susceptible) proliferation in erythrocyte-based infection assay
# Type: functional, organism-based
# condition: Plasmodium falciparum, 3D7
pEC50: −log10 of the molar value.
Note to self: values exactly at 6 are yes. So pEC50 at or above 6 is yes, below is no.

Worked examples, 5 molecules total:
>  <molecule>
c1ccc(COCC[N+]2(Cc3ccccc3)CCCCC2)cc1

>  <tgt>
Plasmodium falciparum

>  <groupLabel>
no

$$$$
>  <molecule>
CCOC(=O)N1CCC(NC(=O)c2c(C)nn(-c3cccc(C)c3)c2-n2cccc2)CC1

>  <tgt>
Plasmodium falciparum

>  <groupLabel>
yes

$$$$
>  <molecule>
COc1ccc(C2CC(=O)C3=C(C2)NC(C)=C(C(=O)OC2CCCCC2)C3c2ccc([N+](=O)[O-])cc2)cc1OC (configuration not stated)

>  <tgt>
Plasmodium falciparum

>  <groupLabel>
yes

$$$$
>  <molecule>
CC(C)(C)c1cc(CCC(=O)Nc2c3c(nc4ccccc24)N(c2cccc(Cl)c2)CC3)cc(C(C)(C)C)c1O

>  <tgt>
Plasmodium falciparum

>  <groupLabel>
no

$$$$
>  <molecule>
CC(C)(C)NCC(O)COc1cccc2oc3ccccc3c12 (configuration not stated)

>  <tgt>
Plasmodium falciparum

>  <groupLabel>
no

$$$$

Ask: Please check the record CC12CCC(CN(CC(O)Cn3c4ccc(Br)cc4c4cc(Br)ccc43)C1)C2(C)C (configuration not stated) and state if its pEC50 is at or above 6.
Result: no

Ask: Is reported pEC50 greater than or equal to 6 here: CCOC(=O)C1=C(C)NC2=C(C(=O)CC(c3ccc(Cl)cc3)C2)C1c1ccc(Br)cc1 (configuration not stated)
Result: yes

Ask: Does the molecule COc1ccc(-c2csc(Nc3cccc(Cl)c3C)n2)cc1OC have recorded pEC50 that is 6 or more?
Result: no

Ask: Hi, just wondering whether CCOc1cc(C2C(C(=O)OC)=CNC=C2C(=O)OC)cc(Br)c1OCC shows pEC50 of 6 or higher.
Result: yes

Ask: Determine whether this molecule has pEC50 no lower than 6: Oc1ccc(-c2cncc(NCc3ccccc3)n2)cc1
Result: no

Ask: Determine whether measured pEC50 meets or exceeds 6 for Oc1ccc(-c2ccnc3cc(Cl)ccc23)cc1CNCCCn1ccnc1
Result: yes

Ask: Hi, just wondering whether C=CC1CN2CCC1CC2[C@@H](OC(=O)c1ccc(C(C)(C)C)cc1)c1ccnc2ccc(OC)cc12 (some centres not stated) shows pEC50 of 6 or higher.
Result: yes

Ask: I'd appreciate it if you could say whether Cc1nc2ccccn2c1C1(O)C(=O)Nc2c(Cl)cc(Cl)cc21 (configuration not stated) has pEC50 at least equal to 6.
Result: yes

Ask: Hi team, for O=[N+]([O-])c1ccc(NN=Cc2cccs2)c(S(=O)(=O)N2CCCCCC2)c1 , is the recorded pEC50 at or above 6?
Result: no

Ask: Form field: pEC50 at least 6? Entry: CCOC(=O)c1c(CNc2ccncc2)n(C)c2cc(Br)c(O)cc12
Result: yes

Ask: Decide: is the reported value of pEC50 for CC(CCCO)Nc1ccnc2cc(Cl)ccc12 (configuration not stated) equal to or greater than 6?
Result: yes

Ask: hey, is pEC50 for this one >= 6? Fc1ccc(C2(CCCSc3nnc4c(n3)[nH]c3ccccc34)OCCO2)cc1
Result: yes

Ask: Confirm if pEC50 reported for the molecule Cc1ccccc1CSc1ccc(-c2cccs2)nn1 is 6 or above.
Result: no

Ask: hey, is pEC50 for this one >= 6? Cc1nc(N2CCCCC2)c2c(C)c(C(=O)N3CCN(c4ccccc4F)CC3)sc2n1
Result: no

Ask: Is pEC50 for OC1=C2C(=Nc3ccccc3SC2c2cccs2)c2ccccc21 (configuration not stated) at or above 6?
Result: yes

Ask: API: above_or_equal(metric=pEC50, cutoff=6) for item CCCCOc1ccc(N(C(C)=O)C2=C(N3CCOCC3)C(=O)c3ccccc3C2=O)cc1
Result: yes
